We begin with a simple list: items and their reported inhibition at 100 µM.
- tgt: thromboxane synthetase enzyme (Rattus norvegicus, UniProt P49430)
- Construct: from tissue; host or cells: washed blood platelets from Okamoto-Aoki spontaneously hypertensive rats (SHR)
- Sequence (P49430 whole entry): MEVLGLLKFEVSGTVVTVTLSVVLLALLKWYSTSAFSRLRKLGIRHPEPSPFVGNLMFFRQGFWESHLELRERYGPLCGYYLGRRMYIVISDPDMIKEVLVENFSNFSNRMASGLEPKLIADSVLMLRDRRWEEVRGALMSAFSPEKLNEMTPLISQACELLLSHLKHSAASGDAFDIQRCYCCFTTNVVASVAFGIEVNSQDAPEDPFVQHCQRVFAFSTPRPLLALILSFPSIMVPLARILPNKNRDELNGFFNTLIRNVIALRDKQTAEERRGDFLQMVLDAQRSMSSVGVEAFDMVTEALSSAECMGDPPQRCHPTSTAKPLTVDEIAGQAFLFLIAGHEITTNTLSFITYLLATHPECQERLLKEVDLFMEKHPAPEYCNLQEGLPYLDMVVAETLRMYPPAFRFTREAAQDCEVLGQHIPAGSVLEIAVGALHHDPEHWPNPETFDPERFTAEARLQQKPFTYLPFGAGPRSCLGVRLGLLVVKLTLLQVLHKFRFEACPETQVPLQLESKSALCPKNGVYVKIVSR
- assay overview: Inhibition of thromboxane (TXB2) formation in washed rat platelets, TXB2 radioimmunoassay
- Type: biochemical, Okamoto-Aoki spontaneously hypertensive rats (SHR)
- condition details: Concentration 1x10^-4M, platelet suspension incubated 10 minutes at 37 °C
Your answer is read as %, so omit the unit and give the number.

Name the recorded inhibition at 100 µM of the compound listed here: Cc1cc(NCCCn2ccnc2)nc2ccccc12 [Example 6]
98

Name the recorded inhibition at 100 µM of the compound listed here: Cc1ccc(C#N)c(NCCCCc2cccnc2)n1 [Example 108]
96

Name the recorded inhibition at 100 µM of the compound listed here: c1ccc2c(NCCCn3ccnc3)nccc2c1 [Example 14]
84
